biological target: L-lactate dehydrogenase (Plasmodium falciparum (isolate CDC / Honduras)); test: PfLDH activity inhibition – cell lysate, 3D7 strain, counter-screen for P. falciparum growth inhibition project (AID 2304);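 also: 0% = vehicle and 100% = reference inhibitor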; conditions: P. falciparum 3D7 crude extract, LDH APAD/NBT absorbance; at 2 µM; stronger effect = higher value
Active and inactive are the calls of the source. No rule for the calls is given here.
inhibition overview
quantity-kind: inhibition

N#Cc1ccc(CN2CCC(Oc3ccc(NC(=O)c4ccco4)cc3Cl)C2)cc1 (centres undefined); -2% (inactive)
O=C1c2ccccc2C(=O)N1c1ccc(S(=O)(=O)N2CCOCC2)cc1; 3% (inactive)
O=C(Nc1ccc(C(=O)Oc2ccc3ccccc3c2)cc1)N[C@@H](Cc1ccc(O)cc1)C(=O)NC1CCN(Cc2ccc(O)cc2)C1 (some centres undefined); -2% (inactive)
COc1ccccc1-c1csc(C(=O)NC2CCCCN(Cc3ccc(C(C)(C)C)cc3)C2)c1 (centres undefined); -5% (inactive)
O=S(=O)(Nc1cc2c(cc1O)CCN(C1CCC1)CC2)c1ccc(-c2ccc(F)cc2)cc1; -1% (inactive)
COc1cc(CCCON2C(N)=NC(N)=NC2(C)C)cc(OC)c1OC; -2% (inactive)
CCC[C@@H]([C@@H](CC1CCCCC1)C(=O)N[C@H](C(=O)Nc1nccs1)[C@@H](C)OCc1ccccc1)N(O)C=O; -3% (inactive)
COc1cc(C(=O)NC2CC(C)(C)N(C)C(C)(C)C2)ccc1-c1cc2cc(Cl)c(Cl)cc2[nH]1; 1% (inactive)
CN(C)CC(=O)N(Cc1ccc(Cl)c(Cl)c1)Cc1csc(-c2ccc(CNCc3ccccc3)cc2)n1; 4% (inactive)
CN(C)c1cccc2c(S(=O)(=O)Nc3cccc(CCN4CCC(N5CCCCC5)CC4)c3)cccc12; -2% (inactive)
NC(=O)c1cnc2cc(-c3ccncc3)cc(Nc3ccc(NC(=O)C4CCCCC4)cc3)c2c1; 0% (inactive)
Cc1cc(N(C)C)nc(Nc2ccc(NC(=O)c3ccc(F)cc3)cc2)n1; -3% (inactive)
Cc1cc(O)c(C(C)C)cc1C1(c2cc(C(C)C)c(O)cc2C)OC(=O)c2ccccc21; -3% (inactive)
CC(=O)OCCN1C(=O)c2ccc3c4c(ccc(c24)C1=O)C(=O)N(CCOC(C)=O)C3=O; 3% (inactive)
CCN1CCC(N(Cc2ccc(-c3ccc(C(F)(F)F)cc3)cc2)C(=O)Cn2c(CCc3cccc(F)c3F)nc(=O)c3ccccc32)CC1; 3% (inactive)
Cc1ccc2nc(-c3cc(-c4cccc(CCN5CCOCC5)c4)cnc3N)[nH]c2c1; -5% (inactive)
Cc1cc(Nc2cccc(C#N)c2)nc(Nc2ccccc2C)n1; 0% (inactive)
CCN1CCN(CCCCNc2c3ccccc3nc3ccccc23)CC1; 8% (inactive)
COc1cccc(CNC[C@@H](O)[C@H](Cc2ccccc2)NC(=O)c2cc(C(C)C)cc(N3CCCC3=O)c2)c1; -4% (inactive)
